B1: library; numbered along this chain (parent)
chain: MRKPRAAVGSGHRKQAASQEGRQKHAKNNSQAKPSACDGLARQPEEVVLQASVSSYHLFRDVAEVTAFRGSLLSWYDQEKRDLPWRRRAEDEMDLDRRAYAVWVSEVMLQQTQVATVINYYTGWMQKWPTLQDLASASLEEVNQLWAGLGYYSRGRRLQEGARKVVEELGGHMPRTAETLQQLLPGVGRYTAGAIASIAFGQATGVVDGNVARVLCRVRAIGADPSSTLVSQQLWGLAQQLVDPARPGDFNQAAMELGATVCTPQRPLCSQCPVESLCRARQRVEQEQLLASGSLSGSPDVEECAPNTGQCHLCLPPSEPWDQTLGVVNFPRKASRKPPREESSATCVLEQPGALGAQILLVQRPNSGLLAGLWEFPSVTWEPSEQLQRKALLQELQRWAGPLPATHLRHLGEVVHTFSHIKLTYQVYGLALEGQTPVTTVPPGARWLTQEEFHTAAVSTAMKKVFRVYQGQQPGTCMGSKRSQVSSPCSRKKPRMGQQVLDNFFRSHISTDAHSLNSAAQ

Variants of: B1
Measurement description: 8OG:A repair function score (normalized; synonymous = 0, nonsense = -1) (normalized log-likelihood score); higher = more repair activity (WT-like);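 note: cells sorted at 72 h after reporter transfection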
Recorded conditions: with 8OG:A DNA repair reporter (GFP) in HEK-293 MUTYH KO cells
// N strictly below -0.1 in 8OG:A repair function score; Y otherwise

>  <Residue change>
S52D

>  <Classification>
Y

$$$$
>  <Residue change>
E303N

>  <Classification>
Y

$$$$
>  <Residue change>
Q450D

>  <Classification>
N

$$$$
>  <Residue change>
V107H

>  <Classification>
N

$$$$
>  <Residue change>
S490M

>  <Classification>
Y

$$$$
>  <Residue change>
G326I

>  <Classification>
N

$$$$
>  <Residue change>
R467Q

>  <Classification>
Y

$$$$
>  <Residue change>
I198R

>  <Classification>
N

$$$$
>  <Residue change>
H407N

>  <Classification>
Y

$$$$
>  <Residue change>
T476L

>  <Classification>
Y

$$$$
>  <Residue change>
P247F

>  <Classification>
N

$$$$
>  <Residue change>
G193S

>  <Classification>
Y

$$$$
>  <Residue change>
L134M

>  <Classification>
N

$$$$
>  <Residue change>
Y100K

>  <Classification>
N

$$$$
>  <Residue change>
Q386P

>  <Classification>
N

$$$$
>  <Residue change>
G205Y

>  <Classification>
N

$$$$
>  <Residue change>
A259F

>  <Classification>
N

$$$$
>  <Residue change>
K492A

>  <Classification>
Y

$$$$
>  <Residue change>
A371S

>  <Classification>
N

$$$$
>  <Residue change>
N366R

>  <Classification>
Y

$$$$
>  <Residue change>
G205P

>  <Classification>
Y

$$$$
>  <Residue change>
A51E

>  <Classification>
Y

$$$$
>  <Residue change>
P365E

>  <Classification>
Y

$$$$
>  <Residue change>
P267D

>  <Classification>
N

$$$$
>  <Residue change>
P264G

>  <Classification>
N

$$$$
>  <Residue change>
E452G

>  <Classification>
N

$$$$
>  <Residue change>
L183H

>  <Classification>
Y

$$$$
>  <Residue change>
E141G

>  <Classification>
N

$$$$
>  <Residue change>
A212T

>  <Classification>
Y

$$$$
>  <Residue change>
Q144F

>  <Classification>
N

$$$$
>  <Residue change>
A212P

>  <Classification>
N

$$$$
>  <Residue change>
M255N

>  <Classification>
N

$$$$
>  <Residue change>
A51S

>  <Classification>
Y

$$$$
>  <Residue change>
S384Q

>  <Classification>
N

$$$$
>  <Residue change>
V48F

>  <Classification>
Y

$$$$
>  <Residue change>
R364G

>  <Classification>
N

$$$$
>  <Residue change>
L325K

>  <Classification>
Y

$$$$
>  <Residue change>
M125H

>  <Classification>
N

$$$$
>  <Residue change>
G171P

>  <Classification>
N

$$$$
>  <Residue change>
P442G

>  <Classification>
N

$$$$
>  <Residue change>
F59H

>  <Classification>
N

$$$$
>  <Residue change>
S105N

>  <Classification>
N

$$$$
>  <Residue change>
V62Q

>  <Classification>
Y

$$$$
>  <Residue change>
G236K

>  <Classification>
Y

$$$$
>  <Residue change>
L215D

>  <Classification>
N

$$$$
>  <Residue change>
K333G

>  <Classification>
N

$$$$
